# protocol_notes: Action to increase the urinary excretion of calcium (1), percutaneous administration
# Format: in vivo, SD male rats
# experimental_context: percutaneous 10 μg/200 μL/kg/day once a day for 4 days; accumulated excretion 0 to 24 hours
parameter: Calcium in Urine within 24 hours (mg)

Examples with answers:
CC(OC(=O)CCC(C)(O)C(F)(F)F)C1=CCC2C(=CC=C3CC(O)CC(O)C3)CCCC12C (stereo not shown) : 1.2
C=C1[C@H](O)CC(=C/C=C2\CCC[C@]3(C)C([C@H](C)OC(=O)CCC(C)(C)O)=CC[C@@H]23)C[C@H]1O : 1.1

I = C=C1/C(=C\C=C2/CCC[C@]3(C)[C@@H]([C@H](C)OC(=O)CCC(C)(C)O)CC[C@@H]23)C[C@@H](O)C[C@@H]1O
II = CC(OC(=O)CCC(C)(O)C(F)(F)F)C1CCC2C(=CC=C3CC(O)CC(O)C3)CCCC21C (stereo not shown)
Please indicate which has the smaller reported Calcium in Urine within 24 hours: I , or II . Please identify the chosen entry by its label. I
(I: 0.8 mg, II: 1.2 mg)

----------
# protocol_notes: Metabolic rate in human liver microsome
# Format: in vitro ADME
# experimental_context: pooled human liver microsome 1 mg/mL protein, NADPH-regenerating system, 37° C., 2-60 minutes, HPLC
parameter: Metabolic Rate (pmol/min/mg)

A selection of reference data follows.
C=C1C(=CC=C2CCCC3(C)C2CCC3C(C)OC(=O)CCCC(C)(O)C(F)(F)F)CC(O)CC1O (stereo not shown) : 36
CC(OC(=O)CCC(C)(O)C(F)(F)F)C1=CCC2C(=CC=C3CC(O)CC(O)C3)CCCC12C (stereo not shown) [Compound of Example 47] : 95
C=C1C(=CC=C2CCCC3(C)C(C(C)OC(=O)CCC(C)(C)O)=CCC23)CC(O)CC1O (stereo not shown) : 26
CCC(O)(CC)CCC(=O)OC(C)C1CCC2C(=CC=C3CC(O)C(C)C(O)C3)CCCC21C (stereo not shown) : 38
CC1[C@H](O)CC(=C/C=C2\CCC[C@]3(C)[C@@H]([C@H](C)OC(=O)CCC(C)(O)C(F)(F)F)CC[C@@H]23)C[C@H]1O (stereo partly shown) : 188

I = C=C1/C(=C\C=C2/CCC[C@]3(C)[C@@H]([C@H](C)OC(=O)CCC(C)(C)O)CC[C@@H]23)C[C@@H](O)C[C@@H]1O
II = C=C1/C(=C\C=C2/CCC[C@]3(C)[C@@H]([C@H](C)OCCC(C)(C)O)CC[C@@H]23)C[C@@H](O)C[C@@H]1O [Maxacalcitol, reference compound]
Hi, I'm comparing two records. Which one has the lower Metabolic Rate, I or II ? Label of pick, please. II

a = CC(OC(=O)CCC(C)(O)C(F)(F)F)C1CCC2C(=CC=C3CC(O)CC(O)C3)CCCC21C (stereo not shown) [Compound of Example 43]
b = CC(OC(=O)CCC(C)(O)C(F)(F)F)C1CCC2C(=CC=C3CC(O)CC(O)C3)CCCC21C (stereo not shown) [Compound of Example 72]
Would you mind telling me which has the lower recorded Metabolic Rate between a and b ? Respond using the label that marks the chosen record. a
(a: 74 pmol/min/mg, b: 111 pmol/min/mg)

I = C=C1C(=CC=C2CCCC3(C)C2CCC3C(C)OC(=O)CCCC(O)(CC)CC)CC(O)CC1O (stereo not shown)
II = CC(OC(=O)CCC(C)(O)C(F)(F)F)C1=CCC2C(=CC=C3CC(O)CC(O)C3)CCCC12C (stereo not shown) [Compound of Example 68]
Would you let me know which has the greater Metabolic Rate value, I or II ? Kindly give the label for the entry you pick. II

a = C=C1C(=CC=C2CCCC3(C)C2CCC3C(C)OC(=O)CCC2(O)CCCC2)CC(O)CC1O (stereo not shown)
b = C=C1[C@H](O)CC(=C/C=C2\CCC[C@]3(C)C([C@H](C)OC(=O)CCC(C)(C)O)=CC[C@@H]23)C[C@H]1O
Between the two listed entries a and b , which has its Metabolic Rate at the higher number? Refer to your chosen entry by its label in the reply. b
(b: 69 pmol/min/mg, a: 39 pmol/min/mg)

----------
# protocol_notes: Action to increase the urinary excretion of calcium (2), intravenous administration
# Format: in vivo, SD male rats
# experimental_context: intravenous 22.4 nmol/kg, urine within 24 hours; test compound/control group
# Experimental: The compound of the invention mentioned in Example 42, 61 or 66, or maxacalcitol in saline containing 0.1% Triton X 100/5.6% DMSO (22.4 nmol/kg) was subjected to an intravenous administration to SD male rats (7 weeks of age) Saline containing 0.1% Triton X 100/5.6% DMSO was administered to a control group. […]
parameter: Ratio of Calcium in Urine (to control) (%)

CC1[C@H](O)CC(=C/C=C2\CCC[C@]3(C)[C@@H]([C@H](C)OC(=O)CCC(C)(O)C(F)(F)F)CC[C@@H]23)C[C@H]1O (stereo partly shown) [Compound of Example 61] : 120

I = CCC(O)(/C=C/C(=O)O[C@@H](C)[C@H]1CC[C@H]2/C(=C/C=C3C[C@@H](O)C[C@H](O)C3)CCC[C@]12C)CC [Compound of Example 42]
II = C=C1/C(=C\C=C2/CCC[C@]3(C)[C@@H]([C@H](C)OCCC(C)(C)O)CC[C@@H]23)C[C@@H](O)C[C@@H]1O [Maxacalcitol, reference compound]
III = CCC(O)(CC)CCC(=O)O[C@@H](C)[C@H]1CC[C@H]2/C(=C/C=C3C[C@@H](O)C(C)[C@H](O)C3)CCC[C@]12C (stereo partly shown) [Compound of Example 66]
Sequence the entries by Ratio of Calcium in Urine (to control), beginning with the highest number. # answer = labels listed in requested order II, I, III
(II: 460%, I: 160%, III: 100%)

----------
# System: human acute myelogenous leukemia cell line HL-60
# protocol_notes: Ability to induce differentiation of HL-60 cells (oxygen radical production after phorbol ester, WST-1)
# Type: cell-based
# experimental_context: 72 hours incubation, then WST-1 and phorbol 12,13-didecanoate for 4 hours, absorbance at 450 nm
pEC50: −log10 of the molar value.
parameter: pEC50

The examples below pair each entry with its known result.
C=C1C(=CC=C2CCCC3(C)C2CCC3C(C)OC(=O)CCCC(C)(C)O)CC(O)CC1O (stereo not shown) : 8.35
CC(OC(=O)CCC(C)(O)C(F)(F)F)C1=CCC2C(=CC=C3CC(O)CC(O)C3)CCCC12C (stereo not shown) [Compound of Example 68] : 9.64

1 = C=C1C(=CC=C2CCCC3(C)C2CCC3C(C)OC(=O)C=CC(C)(C)O)CC(O)CC1O (stereo not shown)
2 = C=C1[C@H](O)CC(=C/C=C2\CCC[C@]3(C)C([C@H](C)OC(=O)CCC(C)(C)O)=CC[C@@H]23)C[C@H]1O
Pick one: 1 or 2 . Which has the bigger pEC50 number? I would appreciate it if you answered with the label of your choice. 2
(2: 9.68, 1: 8.47)

A = C=C1[C@H](O)CC(=C/C=C2\CCC[C@]3(C)C([C@H](C)OC(=O)CC[C@](C)(O)C(F)(F)F)=CC[C@@H]23)C[C@H]1O
B = C=C1C(O)CC(=CC=C2CCCC3(C)C2CCC3C(C)OC(=O)CCC(C)(O)C(F)(F)F)CC1O (stereo not shown)
C = C=C1C(=CC=C2CCCC3(C)C2CCC3C(C)OC(=O)CC(O)(CC)CC)CC(O)CC1O (stereo not shown)
D = C=C1C(O)CC(=CC=C2CCCC3(C)C2CCC3C(C)OC(=O)CCCC(C)(C)O)CC1O (stereo not shown)
E = CC(OC(=O)CCC(C)(C)O)C1CCC2C(=CC=C3CC(O)C(C)C(O)C3)CCCC21C (stereo not shown)
Returns the items ordered by pEC50, from maximum to minimum. Provide the labels, sequenced as the question asks. E, A, B, D, C
(E: 10.37, A: 9.82, B: 9.60, D: 9.28, C: 8.82)

----------
# System: human acute myelogenous leukemia cell line HL-60
# protocol_notes: Ability to induce differentiation of HL-60 cells (oxygen radical production after phorbol ester, WST-1)
# Format: cell-based
# experimental_context: 72 hours incubation, then WST-1 and phorbol 12,13-didecanoate for 4 hours, absorbance at 450 nm
pEC50: −log10 of the molar value.
parameter: pEC50

Take a look at these entries with their results.
CCC(O)(/C=C/C(=O)O[C@@H](C)[C@H]1CC[C@H]2/C(=C/C=C3C[C@@H](O)C[C@H](O)C3)CCC[C@]12C)CC [Compound of Example 42] : 8.89
C=C1C(=CC=C2CCCC3(C)C(C(C)OC(=O)CCC(C)(O)C(F)(F)F)=CCC23)CC(O)CC1O (single isomer, unassigned) [Compound of Example 71] : 8.96
CC1[C@H](O)CC(=C/C=C2\CCC[C@]3(C)[C@@H]([C@H](C)OC(=O)CCC(C)(O)C(F)(F)F)CC[C@@H]23)C[C@H]1O (stereo partly shown) [Compound of Example 61] : 8.92
C=C1C(=CC=C2CCCC3(C)C2CCC3C(C)OC(=O)CCC(O)(CC)CC)CC(O)CC1O (stereo not shown) [Compound of Example 13] : 9.28
C=C1C(=CC=C2CCCC3(C)C2CCC3C(C)OC(=O)CCCC(O)(CC)CC)CC(O)CC1O (stereo not shown) [Compound of Example 34] : 8.38

P = C=C1C(O)CC(=CC=C2CCCC3(C)C(C(C)OC(=O)CCC(C)(O)C(F)(F)F)=CCC23)CC1O (stereo not shown) [Compound of Example 56]
Q = C=C1C(=CC=C2CCCC3(C)C2CCC3C(C)OC(=O)CCCC(C)(O)C(F)(F)F)CC(O)CC1O (stereo not shown) [Compound of Example 37]
# min-compare on pEC50 between P and Q Refer to your chosen item by its label in the answer. Q

I = C=C1C(=CC=C2CCCC3(C)C2CCC3C(C)OC(=O)CC(=O)C(C)(O)C(F)(F)F)CC(O)CC1O (stereo not shown) [Compound of Example 38]
II = C=C1C(=CC=C2CCCC3(C)C2CCC3C(C)OC(=O)CCC2(O)CCCC2)CC(O)CC1O (stereo not shown) [Compound of Example 20]
Pick one: I or II . Which has the bigger pEC50 number? // return label of chosen record II

P = CC(OC(=O)CCC(C)(C)O)C1CCC2C(=CC=C3CC(O)CC(O)C3)CCCC21C (stereo not shown) [Compound of Example 40]
Q = CC1[C@H](O)CC(=C/C=C2\CCC[C@]3(C)[C@@H]([C@H](C)OC(=O)CCCC(C)(C)O)CC[C@@H]23)C[C@H]1O (stereo partly shown) [Compound of Example 58]
Select one. Lower pEC50: P or Q Answer format: the label of the selected item. P

a = CC(OC(=O)CCC(C)(C)O)C1=CCC2C(=CC=C3CC(O)CC(O)C3)CCCC12C (stereo not shown) [Compound of Example 46]
b = CCC(O)(CC)CCC(=O)OC(C)C1CCC2C(=CC=C3CC(O)C(C)C(O)C3)CCCC21C (stereo not shown) [Compound of Example 67]
Which of the two items, a and b , has the greater recorded pEC50? Respond with the label that goes with your answer. b
(b: 9.82, a: 8.85)
